measuredTarget: T1, human MSLN-R3-his protein (human, UniProt Q13421 487-598)
T1 construct: it is put last here; also called human MSLN-R3 protein; hMSLN-R3-his; not shown: His tag
T1 sequence (Q13421 495-606): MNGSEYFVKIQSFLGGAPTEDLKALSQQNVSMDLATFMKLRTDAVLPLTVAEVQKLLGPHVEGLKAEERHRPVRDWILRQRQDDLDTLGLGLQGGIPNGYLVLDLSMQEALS
procedureDetails: ELISA on coated antigen, antibody 200 nM
Listing of entries alongside the reported OD450.
reportedProperty: OD450

[[record]]
binder = "S009-F7.33.24 (antibody, human IgG1, kappa, V domains shown, Human-murine chimeric antibody, human IgG1 heavy and kappa light constant regions) VH: QVQLQQPGTELVKPGASVKLSCKASGYTFTSYWMHWVKQRPGQGLEWIGNVNPSNGGSNYNEKFKNKATLTVDKSSSTADMQLNSLTSEDSAVYYCAPHYIGSRPGFAYWGQGTLVTVSG VL: DIVMTQSQKFMSTSVGDRVSVTCKASQNVGTNIAWYQQKPGQSPKALIYSASYRYSGVPDRFTGSGSGTDFTLTITNVQSEDLAEYFCQQYNSYPLTFGGGTKVEIKR"
reportedproperty = "OD450"
recordedmeasurement = "2.84 OD"

[[record]]
binder = "S009-F7.61.21 (antibody, human IgG1, kappa, V domains shown, Human-murine chimeric antibody, human IgG1 heavy and kappa light constant regions) VH: DVQLQQSGPELVEPGASVRIPCKAAGHTFTDYNVDWVKQSHGQSLEWIGDVNPNTDGAIYNQKFEGKATLTVDTSSSTAYMELRSLTSEDTAVYFCARRRLGQGGFDSWGQGTTLTVSS VL: QVVLTQSPAIMSASPGEKVTLTCGASSSLISKYLYWYQQKPGSSPKLWIYSTSNLASGVPARFSGSGSGTSYSLTISSMEAEDAASYFCHQWSSYPYTFGGGTKVEIKR"
reportedproperty = "OD450"
recordedmeasurement = "2.61 OD"

